- Assay target: SARS-CoV-2 spike protein receptor binding domain (RBD), wild type (SARS-CoV-2, UniProt P0DTC2 319-539)
- Test description: ELISA, RBD protein coated on plate, antibody titrated
Answer each item with its documented EC50.
Give bare numbers, in ng/mL.

Use these answered entries as a reference point.
Binder	EC50 (ng/mL)
C598 (antibody, V domains shown) VH: QVQLVQSGPEVKKPGTSVKVSCKASGFTFSSSAVQWVRQARGQRLEWIGWIVVGSGNTNYAQKFQERVTITRDMSTSTAYMELSSLRSEDTAVFYCAAPYCNVTTCFDGFNIWGRGTMVTVSS VL: EIVLTQSPGTLSLSPGERATLSCRASQSVRSSYFAWYQQKPGQAPRLLIYAASSRATGIPDRFSGSGSGTDFTLTISRLEPEDFALYYCQQYGSSPWTFGQGTKVEIK	3.78
C530 (antibody, V domains shown) VH: QVQLVESGGGVAQPGRSLRLSCAASGFTFSRYGMHWVRQAPGKGLEWVAVIWHDGSDKYCADFVKGRFTISRDNSKNTLYMQMDSLRAEDTAVYYCARGGRPDHETGIAVLGEYYFDSWGQGTLVTVSS VL: SYELTQPPSVSVSPGQTARITCSGDAFPLQYGYWYQQKPGQAPVLVIYKDKERPSGISERFSGSSSGTTVTLTISGVQAEDEADYYCQSADTNGVVFGGGTSLTVL	10.5

Moving on to another binder below.
input: # query: EC50 of entry C507 (antibody, V domains shown) VH: EVQLVESGGGVVQPGRSLRLSCAASGFTFSSYAIHWVRQAPGKGLEWVAVISFDGSNKYYRDSVKGRFTISRDNGKNTLYLQMNSLRAEDTAVYYCAKAALGYCTNGVCYCDNWGQGTLVTVSS VL: NFMLTQPHSVSESPGKTVTISCTGSSGSIASNYVQWYQQRPGSAPTTVIYEDNQRPSGVPDRFSGSIDSSSNSASLSISGLKTEDEADYYCQSYDINSLWVFGGGTRLTVL
output: 5.6
